Recorded measurements of melting point, one per entry

Sample `O=C(c1ccc(Cc2ccc(F)cc2)o1)c1cc(Cl)c2cccnc2c1O` — what was its melting point?
126 to 128 °C

Could you tell me which melting point is on file for Cc1nc2c(O)c(-c3nnc(Cc4ccccc4)o3)cc(Cl)c2[nH]1 [Compound I-35] ?
255 to 257 °C

Which melting point is listed for COC(=O)c1cc(Cl)c2c(nc(Cc3ccc(F)cc3)n2C)c1O [Compound I-6] ?
198 to 201 °C

Record request: melting point value, item `CCn1c(C)nc2c(O)c(-c3ncc(Cc4ccc(F)cc4)o3)ccc21`
150 to 151 °C

Entry under review: O=C(O)c1cc(Cl)c2cc(Cc3ccc(F)cc3)cnc2c1O [Compound I-65] . Reported melting point?
222 to 224 °C

====

// values below are reported melting point

{"structureSmiles": "CCOC(=O)c1cc(CC)c2cc(Cc3ccc(F)cc3)cnc2c1O", "valueObserved": "78 to 80 °C"}

// lookup melting point for `O=C(c1ccccc1)c1cc(C(=O)O)c2cc(Cc3ccc(F)cc3)cnc2c1O`
220 to 223 °C

# melting point lookup, item `COC(=O)c1cc(C(=O)Nc2ccccn2)c2cc(Cc3ccc(F)cc3)cnc2c1O`
190 to 194 °C

====

The entries below are paired with their reported melting point.

{"structureSmiles": "O=C(c1cc(Cl)c2[nH]c(Cc3ccc(F)cc3)nc2c1O)N1CCCC1", "melting point": "268 to 272 °C (dec.)"}
{"structureSmiles": "COC(=O)c1cc(Cl)c2[nH]c(Cc3ccc(F)cc3)nc2c1O", "melting point": "257 to 260 °C"}
{"structureSmiles": "O=C(c1nccs1)c1ccc2[nH]c(Cc3ccc(F)cc3)nc2c1O", "melting point": "239 to 240 °C"}
{"structureSmiles": "Cc1nc2c(O)c(-c3nnc(COc4ccccc4)o3)cc(Cl)c2[nH]1", "melting point": "266 to 268 °C"}
{"structureSmiles": "O=C(c1ccc(Sc2ccc(F)cc2)o1)c1cc(Cl)c2cccnc2c1O", "melting point": "120 to 122 °C"}

Okay, now this compound:
GET /values?readout=melting point&item= `O=C(O)c1ccc2[nH]c(CCc3ccc(F)cc3)nc2c1O`
152 to 155 °C
